- assay-notes: The steady-state pharmacokinetics of itraconazole analyzed after multiple oral dosing of 16 healthy volunteers with 200 mg Itraconazole following a moderate-fat breakfast once daily for 14 days in an open-label study
- Assay type: ADME, organism-based
- Set-up: dose 200 mg, route oral
- condition-summary: human, in vivo; dietary status Fed with moderate-fat breakfast, dose 200 mg, dosed compound id 2, dosed compound name ITRACONAZOLE, gender male and female, regimen Multiple dose, route oral, study dosing duration 14 day, tissue Plasma; read-out: t1/2 ss (converted)

| compound | half-life |
| --- | --- |
| CCC(C)n1ncn(-c2ccc(N3CCN(c4ccc(OCC5COC(Cn6cncn6)(c6ccc(Cl)cc6Cl)O5)cc4)CC3)cc2)c1=O (stereo unspecified) | 36.8 h |

* * *

- assay-notes: The steady-state pharmacokinetics of itraconazole analyzed after multiple oral dosing of 16 healthy volunteers with 200 mg Itraconazole following a moderate-fat breakfast once daily for 14 days in an open-label study
- Assay type: ADME, organism-based
- Parameters: dose 200 mg, route oral
- condition-summary: human, in vivo; dietary status Fed with moderate-fat breakfast, dose 200 mg, dosed compound id 2, dosed compound name ITRACONAZOLE, gender male and female, regimen Multiple dose, route oral, study dosing duration 1 day, tissue Plasma
experimental-readout: Tmax (h)

| compound | experimental-readout | value-measured |
| --- | --- | --- |
| CCC(C)n1ncn(-c2ccc(N3CCN(c4ccc(OCC5COC(Cn6cncn6)(c6ccc(Cl)cc6Cl)O5)cc4)CC3)cc2)c1=O (stereo unspecified) | Tmax | 4 |

* * *

- assay-notes: The pharmacokinetic parameters of Itraconazole after single oral administration of 200 mg Itraconzole to 9 male and 9 female healthy subjects in fasting and in fed conditions
- Type: ADME, organism-based
- Set-up: dose 200 mg, route oral
- condition-summary: both, human, in vivo; dietary status Fed, dose 200 mg, dosed compound id 2, dosed compound name ITRACONAZOLE, gender male and female, regimen Single dose, route oral, tissue Plasma

| compound | Tmax, h |
| --- | --- |
| CCC(C)n1ncn(-c2ccc(N3CCN(c4ccc(OCC5COC(Cn6cncn6)(c6ccc(Cl)cc6Cl)O5)cc4)CC3)cc2)c1=O (stereo unspecified) | 4.6 |
